experiment: Intrinsic thermodynamic stability by DSC; format: physicochemical; conditions: same buffer
assay.endpoint: Tm3 (° C.) (°C)
Field format: number, assumed °C, no unit text.

Query block: Need Tm3 (° C.) of Hu2B5.9: humanized 2B5-8.0; VH SEQ ID NO 76, VL SEQ ID NO 77 (antibody, V domains shown) VH: EVQLVQSGAEVKKPGASVKVSCKASGYTFTKYWLGWVRQAPGQGLEWMGDIYPGYDYTHYNEKFKDRVTMTTDTSTSTAYMELRSLRSDDTAVYYCARSDGSSTYWGQGTLVTVSS VL: DIVMTQTPLSLPVTPGEPASISCTSSQNIVHSNGNTYLEWYLQKPGQSPQLLIYKVSNRFSGVPDRFSGSGSGTDFTLKISRVEAEDVGVYYCFQVSHVPYTFGGGTKVEIKR , thanks.
Result block: 83.04
